System: KRAS PDC multicell spheroid viability
Assay: Anticancer human tumor 521955-158-R6-J3-PDC patient-derived pancreatic carcinoma cell line growth inhibition [KRAS2]
Details: second compound 1 µM; first compound 0.0316 µM; active compounds read low
observation-type: viability, T/C (%)
The response must be a number in % with no trailing unit.

Example cases with answers are listed next.
get_value(item= Cn1nccc1Nc1nccc(-c2cc3c(s2)C(C)(C)N(CCN2CCOCC2)C3=O)n1 + CC1OCC2(CCN(c3cnc(Sc4ccnc(N)c4Cl)c(N)n3)CC2)C1N , readout=viability, T/C) returns 88.4

Entry CC1(C)CCC(CN2CCN(c3ccc(C(=O)NS(=O)(=O)c4ccc(NCC5CCOCC5)c([N+](=O)[O-])c4)c(Oc4cnc5[nH]ccc5c4)c3)CC2)=C(c2ccc(Cl)cc2)C1 + CC1OCC2(CCN(c3cnc(Sc4ccnc(N)c4Cl)c(N)n3)CC2)C1N — recorded viability, T/C = 102

Per the records, this compound ( CC(=O)Nc1cccc(-n2c(=O)n(C3CC3)c(=O)c3c(Nc4ccc(I)cc4F)n(C)c(=O)c(C)c32)c1 + CNCc1ccccc1-c1csc(C(C)Nc2nc(C)nc3cc(OC)c(OC)cc23)c1 ) has viability, T/C equal to 12.3

Value of measured viability, T/C for the entry CC1COCCN1c1cc(-c2ccnn2C)c2ccnc(-c3ccn[nH]3)c2n1 (stereo not given) + C=CC(=O)N1CCN(c2nc(=O)n(-c3c(C)ccnc3C(C)C)c3nc(-c4c(O)cccc4F)c(F)cc23)C(C)C1 : 111

For the next question, use this compound.
// viability, T/C value for CCNC(=O)CC1N=C(c2ccc(Cl)cc2)c2cc(OC)ccc2-n2c(C)nnc21 (stereo not given) + C=CC(=O)N1CCN(c2nc(=O)n(-c3c(C)ccnc3C(C)C)c3nc(-c4c(O)cccc4F)c(F)cc23)C(C)C1 : 112

* * *

Tested on: KRAS PDC multicell spheroid viability
Experiment: Anticancer human tumor 521955-158-R6-J3-PDC cell line growth inhibition [KRAS2];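 also: drug exposure lasted seven days; 100% = DMSO vehicle wells and lower means fewer viable cells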
Conditions: second compound 0.1 µM; first compound 1 µM; active compounds read low
Rule: measured viability, T/C below 90% gets yes (1); anything equal to or greater than 90% gets no (0).

# check: viability, T/C < 90% for CCN1CCN(Cc2ccc(Nc3ncc(F)c(-c4cc(F)c5nc(C)n(C(C)C)c5c4)n3)nc2)CC1 + C=CC(=O)N1CCN(c2nc(OCC3CCCN3C)nc3c2CCN(c2cccc4cccc(C)c24)C3)CC1CC#N no (0)

Is the reported viability, T/C for CC1COCCN1c1cc(-c2ccnn2C)c2ccnc(-c3ccn[nH]3)c2n1 (configuration not stated) + CNCc1ccccc1-c1csc(C(C)Nc2nc(C)nc3cc(OC)c(OC)cc23)c1 strictly below 90%? yes (1)

is_below(viability, T/C, 90%) for CC(=O)OC12COC1CC(O)C1(C)C(=O)C(O)C3=C(C)C(OC(=O)C(O)C(NC(=O)OC(C)(C)C)c4ccccc4)CC(O)(C(OC(=O)c4ccccc4)C21)C3(C)C (configuration not stated) + C=CC(=O)N1CCN(c2nc(OCC3CCCN3C)nc3c2CCN(c2cccc4cccc(C)c24)C3)CC1CC#N ? no (0)

API: query returns whether the compound falls strictly under 90% in viability, T/C. Query: COC(=O)c1ccc2c(C(=Nc3ccc(N(C)C(=O)CN4CCN(C)CC4)cc3)c3ccccc3)c(O)[nH]c2c1 + C=CC(=O)N1CCN(c2nc(=O)n(-c3c(C)ccnc3C(C)C)c3nc(-c4c(O)cccc4F)c(F)cc23)C(C)C1 no (0)

A record lists CC1COCCN1c1cc(-c2ccnn2C)c2ccnc(-c3ccn[nH]3)c2n1 (configuration not stated) + CC1OCC2(CCN(c3cnc(Sc4ccnc(N)c4Cl)c(N)n3)CC2)C1N . Is its viability, T/C below 90%? yes (1)

Here's the next entry for you.
API: query returns whether the compound falls strictly under 90% in viability, T/C. Query: CC1OCC2(CCN(c3cnc(Sc4ccnc(N)c4Cl)c(N)n3)CC2)C1N (configuration not stated) + CNCc1ccccc1-c1csc(C(C)Nc2nc(C)nc3cc(OC)c(OC)cc23)c1 yes (1)

All figures here come from PubChem BioAssay AID1963864.
